FYI, the data here is from patent US20100267697A1.

Target: human Cav2.2 (composed of the subunits α1, β3 and α2δ) (Homo sapiens, UniProt Q00975)
Sequence (Q00975 whole entry): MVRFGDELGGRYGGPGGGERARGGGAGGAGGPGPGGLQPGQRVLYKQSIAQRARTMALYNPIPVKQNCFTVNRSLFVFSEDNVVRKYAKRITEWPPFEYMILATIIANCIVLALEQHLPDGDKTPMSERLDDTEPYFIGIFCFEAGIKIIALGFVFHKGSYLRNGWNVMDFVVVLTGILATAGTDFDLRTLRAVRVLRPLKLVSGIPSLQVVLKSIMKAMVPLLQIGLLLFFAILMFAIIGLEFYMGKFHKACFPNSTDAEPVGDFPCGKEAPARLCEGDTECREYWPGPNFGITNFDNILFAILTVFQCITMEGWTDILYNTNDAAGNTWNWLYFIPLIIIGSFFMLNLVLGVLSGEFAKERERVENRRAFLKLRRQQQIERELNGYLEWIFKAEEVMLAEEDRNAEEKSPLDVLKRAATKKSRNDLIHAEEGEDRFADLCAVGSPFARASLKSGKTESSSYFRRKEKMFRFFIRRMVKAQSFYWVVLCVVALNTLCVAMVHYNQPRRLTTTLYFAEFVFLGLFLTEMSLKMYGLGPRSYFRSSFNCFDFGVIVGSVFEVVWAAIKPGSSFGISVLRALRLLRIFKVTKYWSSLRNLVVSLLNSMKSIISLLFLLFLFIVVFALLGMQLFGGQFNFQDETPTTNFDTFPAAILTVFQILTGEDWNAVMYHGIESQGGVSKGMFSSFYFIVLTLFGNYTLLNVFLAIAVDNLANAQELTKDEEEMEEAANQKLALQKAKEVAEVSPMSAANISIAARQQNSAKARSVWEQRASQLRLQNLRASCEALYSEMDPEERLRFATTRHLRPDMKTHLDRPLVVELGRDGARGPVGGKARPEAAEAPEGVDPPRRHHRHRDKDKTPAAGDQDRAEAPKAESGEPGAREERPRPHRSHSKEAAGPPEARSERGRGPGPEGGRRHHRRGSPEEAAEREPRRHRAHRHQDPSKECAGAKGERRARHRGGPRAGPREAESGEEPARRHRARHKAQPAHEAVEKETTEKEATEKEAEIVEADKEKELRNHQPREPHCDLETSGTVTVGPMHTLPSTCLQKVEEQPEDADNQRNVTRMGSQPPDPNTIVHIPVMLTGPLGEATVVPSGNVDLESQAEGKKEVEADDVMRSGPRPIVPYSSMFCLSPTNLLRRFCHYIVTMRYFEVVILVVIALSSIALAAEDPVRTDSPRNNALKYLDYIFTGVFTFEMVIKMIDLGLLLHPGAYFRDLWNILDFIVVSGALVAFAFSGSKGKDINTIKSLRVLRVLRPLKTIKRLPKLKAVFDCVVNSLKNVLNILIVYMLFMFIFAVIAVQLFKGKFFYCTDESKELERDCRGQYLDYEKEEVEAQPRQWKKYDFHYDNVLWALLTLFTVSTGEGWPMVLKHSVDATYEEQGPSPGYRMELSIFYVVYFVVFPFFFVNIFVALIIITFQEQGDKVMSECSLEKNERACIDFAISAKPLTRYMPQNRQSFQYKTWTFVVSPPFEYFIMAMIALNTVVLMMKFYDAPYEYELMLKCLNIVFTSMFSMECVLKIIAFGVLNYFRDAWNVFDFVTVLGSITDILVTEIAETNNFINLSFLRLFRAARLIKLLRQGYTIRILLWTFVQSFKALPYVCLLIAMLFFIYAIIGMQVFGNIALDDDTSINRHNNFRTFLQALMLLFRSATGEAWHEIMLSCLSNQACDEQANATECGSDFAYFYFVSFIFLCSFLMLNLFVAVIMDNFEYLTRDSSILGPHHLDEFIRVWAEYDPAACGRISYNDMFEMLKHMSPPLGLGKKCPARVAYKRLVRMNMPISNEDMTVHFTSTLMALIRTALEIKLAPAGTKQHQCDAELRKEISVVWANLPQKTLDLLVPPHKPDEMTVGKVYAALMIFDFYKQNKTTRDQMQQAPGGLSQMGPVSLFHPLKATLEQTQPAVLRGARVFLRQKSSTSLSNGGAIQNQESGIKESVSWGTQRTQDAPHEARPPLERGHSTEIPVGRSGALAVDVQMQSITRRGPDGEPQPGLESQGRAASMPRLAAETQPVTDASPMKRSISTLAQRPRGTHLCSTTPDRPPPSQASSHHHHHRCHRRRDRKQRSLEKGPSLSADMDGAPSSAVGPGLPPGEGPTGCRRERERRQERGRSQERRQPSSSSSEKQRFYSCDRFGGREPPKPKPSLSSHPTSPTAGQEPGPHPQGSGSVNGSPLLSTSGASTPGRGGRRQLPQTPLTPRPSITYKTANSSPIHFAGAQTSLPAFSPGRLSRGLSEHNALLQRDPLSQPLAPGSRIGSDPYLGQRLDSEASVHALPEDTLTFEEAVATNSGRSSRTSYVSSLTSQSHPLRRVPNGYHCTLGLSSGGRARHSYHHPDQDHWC
Sequence (P54284 whole entry partner): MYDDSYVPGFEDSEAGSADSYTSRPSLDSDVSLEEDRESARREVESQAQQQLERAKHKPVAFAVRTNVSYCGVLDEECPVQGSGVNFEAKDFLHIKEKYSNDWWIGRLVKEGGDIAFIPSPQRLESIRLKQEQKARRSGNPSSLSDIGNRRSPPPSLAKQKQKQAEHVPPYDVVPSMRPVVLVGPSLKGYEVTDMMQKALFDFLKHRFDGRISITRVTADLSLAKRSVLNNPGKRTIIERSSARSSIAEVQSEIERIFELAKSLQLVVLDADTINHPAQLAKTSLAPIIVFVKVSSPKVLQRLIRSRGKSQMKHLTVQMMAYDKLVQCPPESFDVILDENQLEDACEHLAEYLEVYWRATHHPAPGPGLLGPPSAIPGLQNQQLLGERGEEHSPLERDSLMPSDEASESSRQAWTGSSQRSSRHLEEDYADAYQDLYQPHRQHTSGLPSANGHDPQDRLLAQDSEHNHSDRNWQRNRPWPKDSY
Sequence (P54289 25-946 partner limits assumed): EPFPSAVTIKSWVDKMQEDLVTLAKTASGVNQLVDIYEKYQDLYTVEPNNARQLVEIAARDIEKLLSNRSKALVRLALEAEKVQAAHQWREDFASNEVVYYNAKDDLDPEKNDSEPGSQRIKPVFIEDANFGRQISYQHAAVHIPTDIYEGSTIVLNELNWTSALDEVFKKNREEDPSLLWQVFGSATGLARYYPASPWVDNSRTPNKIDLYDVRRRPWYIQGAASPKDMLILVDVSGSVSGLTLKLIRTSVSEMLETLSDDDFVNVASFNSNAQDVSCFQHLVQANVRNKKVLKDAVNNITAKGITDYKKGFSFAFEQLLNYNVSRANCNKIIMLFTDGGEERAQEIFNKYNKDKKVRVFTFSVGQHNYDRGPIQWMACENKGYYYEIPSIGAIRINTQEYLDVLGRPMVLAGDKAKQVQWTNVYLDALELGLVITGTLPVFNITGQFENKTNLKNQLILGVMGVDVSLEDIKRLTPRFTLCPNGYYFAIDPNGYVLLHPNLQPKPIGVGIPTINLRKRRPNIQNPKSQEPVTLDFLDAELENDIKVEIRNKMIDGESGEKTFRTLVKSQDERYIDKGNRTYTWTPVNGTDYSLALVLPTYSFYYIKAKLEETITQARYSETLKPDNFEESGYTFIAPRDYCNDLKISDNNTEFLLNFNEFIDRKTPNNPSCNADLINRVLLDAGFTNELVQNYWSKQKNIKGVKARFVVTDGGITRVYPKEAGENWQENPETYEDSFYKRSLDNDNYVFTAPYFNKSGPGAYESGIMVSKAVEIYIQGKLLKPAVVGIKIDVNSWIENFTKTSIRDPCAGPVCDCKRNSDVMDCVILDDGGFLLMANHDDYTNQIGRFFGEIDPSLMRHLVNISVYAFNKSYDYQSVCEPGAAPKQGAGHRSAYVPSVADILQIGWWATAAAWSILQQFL
Sequence (P54289 947-1103 partner limits assumed): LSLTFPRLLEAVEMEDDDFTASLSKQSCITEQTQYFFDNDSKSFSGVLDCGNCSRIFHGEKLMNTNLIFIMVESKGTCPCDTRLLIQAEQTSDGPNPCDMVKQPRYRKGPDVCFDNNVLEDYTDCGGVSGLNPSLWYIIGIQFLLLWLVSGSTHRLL
Test: FLIPR assay (TSA201 cells stably transfected with human Cav2.2 and human Kir2.3, FLUO-4 Ca2+ signal, KCl depolarization)
Settings: 70 mM KCl depolarization, average value
In this section we review reported log10 IC50 values for a set of compounds.
# log10 transformed; quantity=IC50; unit=µM

Worked cases, answers included:
| querySmiles | log10 IC50 |
| --- | --- |
| CC(=O)N(Cc1csc(N2CCCN(C)CC2)n1)c1ccc(F)cc1 | 1.47 |
| CN1CCN(c2ccc(CN(C(=O)[C@@H]3CCNC3)c3ccc(F)cc3)cn2)CC1 | 1.77 |
| CC(C)(C)C(=O)N(Cc1ccc(-c2cccc(C(=O)O)c2)nc1)c1ccc(F)cc1 | 1.59 |
| CCN(c1nc(CN(C(=O)[C@@H]2CCCN2)c2ccc(F)cc2)cs1)C1CC1 | 1.14 |
| CN1CCN(c2ccc(CN(C(=O)[C@H]3CCN(C(=O)OC(C)(C)C)C3)c3ccc(F)cc3)cn2)CC1 | 1.10 |
| O=C(C1CCCCC1)N(Cc1csc(N2CCOCC2)n1)C1CCCCC1 | 0.80 |

Lab book: log10 IC50 of CC(=O)N(Cc1csc(N(C)CCO)n1)c1ccc(F)cc1 noted as 1.57

For reference, reported log10 IC50 for CC(C)(C)C(=O)N(Cc1csc(N(c2ccccc2)c2ccccc2)n1)c1ccc(F)cc1 stands at 0.59

* * *

Catalogue of IC50 values
Molecular target: Cav2.2 (Homo sapiens, UniProt Q00975)
Construct: expressed in transfected cells; host or cells: HEK-293T/17 (transient, FuGENE 6)
Sequence (Q00975 whole entry): as the sequence (Q00975 whole entry) above
Sequence (P54284 whole entry partner): as the sequence (P54284 whole entry partner) above
Sequence (P54289 25-946 partner limits assumed): as the sequence (P54289 25-946 partner limits assumed) above
Sequence (P54289 947-1103 partner limits assumed): as the sequence (P54289 947-1103 partner limits assumed) above
Test: HEK assay (whole-cell patch clamp, transiently transfected HEK-293T/17 cells, pulses P1 and P5)
Format: cell-based
Settings: first pulse (P1) of 5 Hz train, holding potential −100 mV, read-out: HEK Cav2.2 P1 IC50
Structures can show the parent of a compound that is named as a salt.
Express the result in µM but write the number alone.

Below are worked cases with known answers.
| compound | studySystem | measureUnit | IC50 |
| --- | --- | --- | --- |
| CCN(c1ccc(CN(C(=O)C2Cc3ccccc3CN2)c2ccc(F)cc2)cn1)C1CC1 (centres unmarked) [Compound 14, dihydrochloride] | Cav2.2 (Homo sapiens, UniProt Q00975) | µM | 10.1 |
| CCC(C)(C)C(=O)N(Cc1ccc(N2CCN(C)CC2)nc1)c1ccccc1C(C)C [Compound 35] | Cav2.2 (Homo sapiens, UniProt Q00975) | µM | 4.4 |

get_value(item= CN(c1ccc(F)cc1)c1nc(CN(C(=O)C2CCCN2C)c2ccc(F)cc2)cs1 (centres unmarked) [Compound 114] , readout=IC50) returns 4.8

Form field IC50, entry CCN(c1ccc(CN(C(=O)C2Cc3ccccc3CN2C)c2ccc(F)cc2)cn1)C1CC1 (centres unmarked) [Compound 15, dihydrochloride] : 2.1

For reference, reported IC50 for CCN(c1cccc(CN(C(=O)C(C)(C)C)c2ccc(F)cc2)n1)C1CC1 [Compound 92] stands at 1.8

The compound listed as CC(C)c1ccccc1N(Cc1ccc(N2CCN(C)CC2)nc1)C(=O)C(C)(C)C [Compound 30] has a reported IC50 of 18.9

CCN(CC)c1ccc(CN(C(=O)C(C)(C)CC)c2ccc(N(C)C)cc2)cc1 [Compound 90] has a reported IC50 of 2.2

For this compound ( CCC(C)(C)C(=O)N(Cc1ccc(N(C)CCc2ccccn2)nc1)c1ccc(F)cc1 [Compound 24] ), measured IC50 is 2.9

* * *

Target: human Cav2.2 (composed of the subunits α1, β3 and α2δ) (Homo sapiens)
Experiment: FLIPR assay (TSA201 cells stably transfected with human Cav2.2 and human Kir2.3, FLUO-4 Ca2+ signal, KCl depolarization)
Conditions: 70 mM KCl depolarization, average value
Below, each entry is listed with its recorded pIC50.
Bear in mind: pIC50 is minus log10 of a mol/L concentration; give just that figure.

| compound | studySystem | pIC50 |
| --- | --- | --- |
| CCC(C)(C)C(=O)N(Cc1csc(N2CCOCC2)n1)c1ccc(F)cc1 [Compound 138] | human Cav2.2 (composed of the subunits α1, β3 and α2δ) (Homo sapiens) | 4.84 |
| CC(C)(C)C(=O)N(Cc1csc(N2CCC3(CC2)OCCO3)n1)c1ccc(F)cc1 [Compound 181] | human Cav2.2 (composed of the subunits α1, β3 and α2δ) (Homo sapiens) | 5.57 |

The compound identified as CCN(c1cccc(CN(C(=O)[C@@H]2CCCN2)c2ccc(F)cc2)c1)C1CC1 [Compound 118] registered its pIC50 at 5.47

CC(C)(C)C(=O)N(Cc1csc(N2CCOCC2)n1)c1ccc(F)cc1 [Compound 136] has a reported pIC50 of 5.25

Kindly note the recorded pIC50 for CC(=O)N(Cc1ccc(Cl)nc1)c1ccc(F)cc1 [Compound 215] , which is 4.67

* * *

# Lookup of reported IC50 keyed by entry
Molecular target: Cav2.2 (Homo sapiens, UniProt Q00975)
Construct: expressed in transfected cells; host or cells: HEK-293T/17 (transient, FuGENE 6)
Assay: HEK assay (whole-cell patch clamp, transiently transfected HEK-293T/17 cells, pulses P1 and P5)
Format: cell-based
Settings: fifth pulse (P5) of 5 Hz train, holding potential −100 mV, read-out: HEK Cav2.2 P5 IC50
Where a name gives a salt, the structure may show the parent alone.

Use the examples below as a reference point.
| compound | measuredParameter | reading |
| --- | --- | --- |
| CCN(CCc1cccnc1)c1ccc(CN(C(=O)C(C)(C)C)c2ccc(F)cc2)cn1 | IC50 | 900 nM |
| Cc1ccc(OCCN(C)c2ccc(CN(C(=O)C(C)(C)C)c3ccc(F)cc3)cn2)nc1 | IC50 | 500 nM |
| CCN(CC)c1ccc(CN(C(=O)C(C)(C)CC)c2ccc(N(C)C)cc2)cc1 | IC50 | 800 nM |
| CCC(C)(C)C(=O)N(Cc1ccc(N2CCN(c3ccccn3)CC2)nc1)c1ccc(F)cc1 | IC50 | 400 nM |
| CN(C)c1ccc(N(Cc2csc(N(C)c3ccc(C(F)(F)F)cc3)n2)C(=O)C(C)(C)C)cc1 | IC50 | 300 nM |

Documented IC50 of CN(C)c1ccc(N(Cc2csc(N(C)c3ccc(F)cc3)n2)C(=O)C(C)(C)C)cc1 : 600 nM

Kindly note the recorded IC50 for O=C(C1CCCO1)N(Cc1ccc(N2CCN(c3ccccn3)CC2)nc1)c1ccc(F)cc1 (centres unmarked) , which is 2600 nM

Reported IC50 of CCN(c1ccc(CN(C(=O)C2Cc3ccccc3CN2C)c2ccc(F)cc2)cn1)C1CC1 (centres unmarked) [Compound 15, dihydrochloride] : 400 nM

Lab note: CC(C)(C)C(=O)N(Cc1ccc(N2CC[C@H](O)C2)nc1)c1ccc(F)cc1 gave IC50 of 12800 nM

// sample COc1ccc(N(C)c2nc(CN(C(=O)C(C)(C)C)c3ccc(F)cc3)cs2)cc1 , its IC50 was 600 nM

Looking up CN(c1ccc(F)cc1)c1nc(CN(C(=O)C(C)(C)C)c2ccc(F)cc2)cs1 , I found its IC50 recorded as 100 nM

// recorded IC50 for Cc1cc(F)ccc1N(Cc1ccc(N2CCN(C)CC2)nc1)C(=O)C(C)(C)C : 2700 nM

The compound CC(C)(C)C(=O)N(Cc1ccc(NCCc2cccnc2)nc1)c1ccc(F)cc1 showed IC50 equal to 3800 nM

Sample CC(=O)N1CCN(c2ccc(CN(C(=O)C(C)(C)C)c3ccc(F)cc3)cn2)CC1 ; IC50 observed: 7500 nM

IC50 recorded for this compound, CCC(C)(C)C(=O)N(Cc1ccc(N2CCN(C)CC2)nc1)c1ccccc1C(C)C , is 1400 nM

Reported IC50 ( Cc1ccc(OCCN(C)c2ccc(CN(C(=O)C(C)(C)C)c3ccc(F)cc3)cn2)nn1 ) = 11200 nM

Data point: CCN(CC)c1ccc(CN(C(=O)C(C)(C)CC)c2ccc(F)cc2)cn1 ; IC50 = 1300 nM

* * *

Entries and their IC50
Target: Cav2.2 (Homo sapiens)
Construct: expressed in transfected cells; host or cells: HEK-293T/17 (transient, FuGENE 6)
Test: HEK assay (whole-cell patch clamp, transiently transfected HEK-293T/17 cells, pulses P1 and P5)
Type: cell-based
Conditions: fifth pulse (P5) of 5 Hz train, holding potential −100 mV, read-out: HEK Cav2.2 P5 IC50
Where a name gives a salt, the structure may show the parent alone.
Report the figure in nM without appending any unit label.

In the examples that follow, each entry is paired with its recorded IC50.
| compound | IC50 / nM |
| --- | --- |
| CC(C)(C)Nc1ccc(CN(C(=O)C(C)(C)C)c2ccc(F)cc2)cn1 | 3700 |
| CN(c1ccccc1)c1nc(CN(C(=O)C(C)(C)C)c2ccc(F)cc2)cs1 | 600 |

Value of measured IC50 for the entry CN(CCc1ccccn1)c1ccc(CN(C(=O)C(C)(C)C)c2ccc(F)cc2)cn1 : 1700

Entry CCN(CC)c1cccc(CN(C(=O)C(C)(C)C)c2ccc(F)cc2)n1 [Compound 4, hydrochloride] — recorded IC50 = 800

CN(CCN1CCOCC1)c1ccc(CN(C(=O)C(C)(C)C)c2ccc(F)cc2)cn1 has a reported IC50 of 5200

Value of IC50 reported for the compound CCN(CC)c1ccc(CN(C(=O)C(C)(C)C)c2ccc(F)cc2C)cn1 is 1300

Reported IC50 ( CCN(CC)c1ccc(CN(C(=O)CCC(C)C)c2ccc(N(C)C)cc2)cc1 ) = 600

Recorded IC50 (compound CCN(CC)c1ccc(CN(C(=O)C(C)(C)n2cc(Cc3ccccc3)nn2)c2ccc(F)cc2)cn1 ): 700
